B1: TRIM55 (parent)
chain: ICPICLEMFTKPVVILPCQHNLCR

# Variants of: B1
# method summary: protein stability index of a GFP-peptide fusion (GPS, HEK-293T) (PSI 1-6); higher = more stable;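 also: lentivirally expressed fusions sorted by FACS into six bins by GFP to DsRed ratio, PSI derived from sequencing read proportions per bin multiplied by bin number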
# experimental setup: c terminus: a fixed tail appended
endpoint name: protein stability index

{"columns": ["variant id", "endpoint name", "numeric result"],
 "data": [
  ["K11G", "protein stability index", 2.56],
  ["C23H", "protein stability index", 2.92],
  ["Q19V", "protein stability index", 2.18],
  ["L16K", "protein stability index", 2.58],
  ["I4M", "protein stability index", 1.86],
  ["N21Y", "protein stability index", 2.48],
  ["P12Q", "protein stability index", 2.43],
  ["T10G", "protein stability index", 2.25],
  ["C5A", "protein stability index", 1.93],
  ["C18Y", "protein stability index", 1.79],
  ["C23G", "protein stability index", 2.01],
  ["M8F", "protein stability index", 2.55],
  ["L6C", "protein stability index", 2.39],
  ["C2F", "protein stability index", 2.02],
  ["V14E", "protein stability index", 3.02],
  ["Q19M", "protein stability index", 2.15],
  ["L16W", "protein stability index", 2.38],
  ["P17T", "protein stability index", 2.32],
  ["F9W", "protein stability index", 2.47],
  ["R24E", "protein stability index", 2.11],
  ["T10Q", "protein stability index", 3.09],
  ["R24K", "protein stability index", 2.32],
  ["K11V", "protein stability index", 1.98],
  ["N21T", "protein stability index", 2.39],
  ["V14P", "protein stability index", 2.56],
  ["P17Y", "protein stability index", 1.99],
  ["M8Q", "protein stability index", 3.31],
  ["V13D", "protein stability index", 3.31],
  ["E7R", "protein stability index", 2.24],
  ["K11R", "protein stability index", 1.87],
  ["T10R", "protein stability index", 2.38],
  ["L6R", "protein stability index", 2.22],
  ["F9E", "protein stability index", 3.15],
  ["C5Y", "protein stability index", 2.3],
  ["I1V", "protein stability index", 2.4],
  ["I1D", "protein stability index", 2.75],
  ["V14C", "protein stability index", 2.32],
  ["I4N", "protein stability index", 2.25],
  ["N21H", "protein stability index", 2.39],
  ["Q19G", "protein stability index", 2.85],
  ["P17C", "protein stability index", 1.8],
  ["P17A", "protein stability index", 1.97],
  ["C2K", "protein stability index", 2.15],
  ["V13L", "protein stability index", 2.26],
  ["F9T", "protein stability index", 3.07],
  ["C2L", "protein stability index", 2.04]
]}
